- target-desc: UniProtKB P46098
- assay: Agonist activity at recombinant human 5-HT3A receptors, [Ca2+]i in HEK293 cells
- Type: cell-based
- run-parameters: at 1 μM, normalized to the response of 5-HT (5-HT response = 100% at 3 μM); NR = no response
reported-metric: HEK293 h5-HT3A % agonist response (%)

- O=C1c2cccc3cnn(c23)CCN1[C@@H]1CN2CCC1CC2 [Example 7]: 19
- O=C1c2cccc3[nH]nc(c23)CN1CC12CCN(CC1)CC2 [Example 29]: 1
- Cc1cn2c3c(cccc13)C(=O)N([C@@H]1CN3CCC1CC3)CC2 [Example 3]: 13
- O=C1c2cccc3ccn(c23)CCN1[C@@H]1CN2CCC1CC2 [Example 2]: 7
- O=C1c2cccc3[nH]c(=O)n(c23)CCN1[C@@H]1CN2CCC1CC2 [Example 25]: 83

----------
- target-desc: human 5-HT3 receptor (Homo sapiens (Human), UniProt P46098)
- Sequence (P46098 24-478): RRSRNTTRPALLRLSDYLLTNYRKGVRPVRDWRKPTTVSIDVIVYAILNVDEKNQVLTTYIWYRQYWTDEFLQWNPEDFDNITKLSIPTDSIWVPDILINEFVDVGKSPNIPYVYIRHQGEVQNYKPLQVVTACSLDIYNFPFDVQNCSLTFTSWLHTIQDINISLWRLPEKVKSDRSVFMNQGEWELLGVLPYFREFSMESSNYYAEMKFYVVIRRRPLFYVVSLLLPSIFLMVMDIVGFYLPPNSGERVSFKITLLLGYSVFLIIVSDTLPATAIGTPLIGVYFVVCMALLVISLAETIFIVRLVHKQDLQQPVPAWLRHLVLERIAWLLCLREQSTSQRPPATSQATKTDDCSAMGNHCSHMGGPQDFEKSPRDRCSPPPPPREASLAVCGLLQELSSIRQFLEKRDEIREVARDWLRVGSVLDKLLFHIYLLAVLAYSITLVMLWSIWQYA
- assay: Radioligand binding assay (SPA format), affinity for the human 5-HT3 receptor
- run-parameters: read-out: h5-HT3A % inhibition @ 10 μM
reported-metric: inhibition at 10 µM (%)

- Cc1nc2cccc3c2n1CCN([C@H]1CN2CCC1CC2)C3=O: 40
- O=C1c2cccc3[nH]c(=O)n(c23)CCN1[C@H]1CN2CCC1CC2: 75
- Cc1nc2cccc3c2n1CCN([C@@H]1CN2CCC1CC2)C3=O: 80
- CCc1nc2cccc3c2n1CCN([C@H]1CN2CCC1CC2)C3=O: 39

----------
- target-desc: human 5-HT3 receptor (Homo sapiens (Human))
- assay: Radioligand binding assay (SPA format), affinity for the human 5-HT3 receptor
pKi: −log10 of the molar value.
reported-metric: pKi

* COc1cc2c3c(cnn3CCN([C@@H]3CN4CCC3CC4)C2=O)c1 | 7.85
* COc1ccc(Cn2cc3c4c(cccc42)C(=O)N(CC24CCN(CC2)CC4)CC3)cc1 | 8.10

----------
Entries and their inhibition at 10 µM
- target-desc: human 5-HT3 receptor (Homo sapiens (Human), UniProt P46098)
- assay: Radioligand binding assay (SPA format), affinity for the human 5-HT3 receptor
- run-parameters: 10 μM compound, radioligand binding; read-out: h5-HT3A % inhibition @ 10 μM
reported-metric: inhibition at 10 µM (%)

• CC(C)c1nc2cccc3c2n1CCN([C@@H]1CN2CCC1CC2)C3=O [Example 19] = 74
• CC(C)c1nc2cccc3c2n1CCN([C@H]1CN2CCC1CC2)C3=O [Example 18] = 51
• O=C1c2cccc3nc(-c4ccc(F)cc4)n(c23)CCN1[C@@H]1CN2CCC1CC2 [Example 22] = 69
• O=C1c2cccc3nc(-c4ccccc4)n(c23)CCN1[C@H]1CN2CCC1CC2 [Example 20] = 23

----------
- target-desc: human 5-HT3 receptor (Homo sapiens (Human))
- assay: Radioligand binding assay (SPA format), affinity for the human 5-HT3 receptor
- run-parameters: [9-methyl-3H]BRL-43694 10 nM, human 5-HT3 receptor membranes, Cheng Prusoff; read-out: h5-HT3A Ki
Classify: fulfilled when Ki is strictly less than 70 nM; not fulfilled when Ki is not.

- O=C1c2cccc3ccn(c23)CCN1[C@@H]1CN2CCC1CC2: fulfilled
- O=C1c2cccc3ccn(c23)CCCN1[C@H]1CN2CCC1CC2: not fulfilled
- O=C1c2cc(O)cc3cnn(c23)CCN1[C@@H]1CN2CCC1CC2: fulfilled
- O=C1c2cccc3cnn(c23)CCN1[C@@H]1CN2CCC1CC2: fulfilled
- O=C1c2cccc3ccn(c23)CCN1[C@H]1CN2CCC1CC2: not fulfilled

src = patent US9045501B2
